target: Sodium-dependent noradrenaline transporter (Homo sapiens); experiment: Inhibition of human NET expressed in human HEK293 cells assessed as inhibition of substrate transport measured after 1 hr by flourescence based plate reader assay; type: cell-based
Sequence (P23975 whole entry): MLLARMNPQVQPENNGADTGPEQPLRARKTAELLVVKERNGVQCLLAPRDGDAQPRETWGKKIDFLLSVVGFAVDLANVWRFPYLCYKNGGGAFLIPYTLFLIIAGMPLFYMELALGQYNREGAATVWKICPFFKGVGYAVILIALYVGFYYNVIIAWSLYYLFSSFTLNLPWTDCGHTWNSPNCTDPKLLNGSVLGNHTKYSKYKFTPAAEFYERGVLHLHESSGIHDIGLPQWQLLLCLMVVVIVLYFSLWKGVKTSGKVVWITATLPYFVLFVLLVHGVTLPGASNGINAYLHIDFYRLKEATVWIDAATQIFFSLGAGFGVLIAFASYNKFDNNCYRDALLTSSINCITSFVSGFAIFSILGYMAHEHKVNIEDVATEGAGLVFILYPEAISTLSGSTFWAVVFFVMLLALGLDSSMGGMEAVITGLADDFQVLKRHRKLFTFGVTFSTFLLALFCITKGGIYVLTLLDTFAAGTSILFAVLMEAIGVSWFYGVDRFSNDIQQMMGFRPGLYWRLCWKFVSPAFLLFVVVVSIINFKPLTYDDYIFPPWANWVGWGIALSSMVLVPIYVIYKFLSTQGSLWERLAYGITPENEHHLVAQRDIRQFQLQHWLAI
parameter: IC50

input.smiles | parameter | assay.value
CN1CC[C@@]23CCCC[C@@H]2[C@@H]1Cc1ccc(OC(F)F)cc13 | IC50 | > 10000 nM
CN1CC[C@@]23CCCC[C@@H]2[C@@H]1Cc1ccc(C(F)(F)F)cc13 | IC50 | 1040 nM
CN1CC[C@@]23CCCC[C@@H]2[C@@H]1Cc1ccc(OC(F)(F)F)cc13 | IC50 | > 10000 nM
COc1ccc2c(c1)[C@@]13CCCC[C@@H]1[C@@H](C2)N(C)CC3 | IC50 | > 10000 nM
CN1CC[C@@]23CCCC[C@@H]2[C@@H]1Cc1ccc(C(F)F)cc13 | IC50 | 944 nM

====

Here the recorded Cmax is given for each entry.
assay: Cmax in Sprague-Dawley rat brain at 2.5 mg/kg, po measured after 24 hrs by LC-MS/MS analysis; assay type: ADME, organism-based; parameters: route oral, time 24 hrs, dose 2.5 mg/kg
parameter: Cmax (ng/mL)

input.smiles | value.unit | assay.value
CN1CC[C@@]23CCCC[C@@H]2[C@@H]1Cc1ccc(OC(F)(F)F)cc13 | ng/mL | 756
[2H]C([2H])([2H])N1CC[C@@]23CCCC[C@@H]2[C@@H]1Cc1ccc(OC(F)(F)F)cc13 | ng/mL | 725
CN1CC[C@@]23CCCC[C@@H]2[C@@H]1Cc1ccc(C(F)F)cc13 | ng/mL | 674
[2H]C([2H])([2H])N1CC[C@@]23CCCC[C@@H]2[C@@H]1Cc1ccc(C(F)F)cc13 | ng/mL | 854
[2H]C([2H])([2H])Oc1ccc2c(c1)[C@@]13CCCC[C@@H]1[C@@H](C2)N(C([2H])([2H])[2H])CC3 | ng/mL | 53.1
COc1ccc2c(c1)[C@@]13CCCC[C@@H]1[C@@H](C2)N(C)CC3 | ng/mL | 214

====

target: Sodium-dependent serotonin transporter (Homo sapiens, UniProt P31645)
Sequence (P31645 whole entry): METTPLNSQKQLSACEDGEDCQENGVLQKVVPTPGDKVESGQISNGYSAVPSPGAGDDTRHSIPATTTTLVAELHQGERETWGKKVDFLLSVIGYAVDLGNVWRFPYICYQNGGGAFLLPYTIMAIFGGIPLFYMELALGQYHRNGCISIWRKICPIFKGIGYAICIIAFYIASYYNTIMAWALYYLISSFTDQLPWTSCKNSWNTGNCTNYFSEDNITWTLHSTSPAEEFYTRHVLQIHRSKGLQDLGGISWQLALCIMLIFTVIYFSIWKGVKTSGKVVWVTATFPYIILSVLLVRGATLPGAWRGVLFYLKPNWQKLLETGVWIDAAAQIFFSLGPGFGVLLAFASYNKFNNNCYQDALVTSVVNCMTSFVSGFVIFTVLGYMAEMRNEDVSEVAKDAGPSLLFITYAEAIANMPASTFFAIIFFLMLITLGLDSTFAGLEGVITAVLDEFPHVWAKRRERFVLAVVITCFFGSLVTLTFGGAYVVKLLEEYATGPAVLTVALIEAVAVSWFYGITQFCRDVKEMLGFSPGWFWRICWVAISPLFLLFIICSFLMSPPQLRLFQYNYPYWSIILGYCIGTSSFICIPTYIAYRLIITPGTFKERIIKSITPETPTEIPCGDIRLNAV
pKi: −log10 of the molar value.
Response key: Satisfied means pKi >= 7; Not satisfied means pKi < 7.

input.smiles | group.label
CN1CC[C@@]23CCCC[C@@H]2[C@@H]1Cc1ccc(C(F)F)cc13 | Satisfied
CN1CC[C@@]23CCCC[C@@H]2[C@@H]1Cc1ccc(OC(F)F)cc13 | Not satisfied
CN1CC[C@@]23CCCC[C@@H]2[C@@H]1Cc1ccc(C(F)(F)C(F)(F)F)cc13 | Not satisfied
CN1CC[C@]23CCCC[C@@H]2[C@H]1Cc1ccc(O)cc13 | Not satisfied
CN1CC[C@@]23CCCC[C@@H]2[C@@H]1Cc1ccc(C(C)(F)F)cc13 | Not satisfied
CN1CC[C@@]23CCCC[C@@H]2[C@@H]1Cc1ccc(OC(F)(F)F)cc13 | Satisfied

====

target: Sigma intracellular receptor 2 (Homo sapiens); assay: Displacement of […] from sigma-2 receptor (unknown origin) expressed in HEK cell membrane incubated for 2 hrs by liquid scintillation counter analysis
Sequence (Q5BJF2 whole entry): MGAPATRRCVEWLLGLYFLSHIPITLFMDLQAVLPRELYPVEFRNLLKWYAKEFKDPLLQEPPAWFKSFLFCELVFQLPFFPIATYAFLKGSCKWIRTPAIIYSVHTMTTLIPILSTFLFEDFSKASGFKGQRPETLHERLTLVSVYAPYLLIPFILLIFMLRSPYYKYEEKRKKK
pKi: −log10 of the molar value.
Here the recorded pKi is given for each entry.
parameter: pKi

input.smiles | comparison.operator | assay.value
CN1CC[C@@]23CCCC[C@@H]2[C@@H]1Cc1ccc(C(F)(F)C(F)(F)F)cc13 | = | 5.85
CN1CC[C@@]23CCCC[C@@H]2[C@@H]1Cc1ccc(OC(F)F)cc13 | = | 5.89
CN1CC[C@@]23CCCC[C@@H]2[C@@H]1Cc1ccc(C(C)(F)F)cc13 | = | 6.08
COc1ccc2c(c1)[C@@]13CCCC[C@@H]1[C@@H](C2)N(C)CC3 | = | 6.06
CN1CC[C@]23CCCC[C@@H]2[C@H]1Cc1ccc(O)cc13 | < | 5.00
CN1CC[C@@]23CCCC[C@@H]2[C@@H]1Cc1ccc(C(F)(F)F)cc13 | = | 6.05
CN1CC[C@@]23CCCC[C@@H]2[C@@H]1Cc1ccc(OC(F)(F)F)cc13 | = | 6.08
CN1CC[C@@]23CCCC[C@@H]2[C@@H]1Cc1ccc(C(F)F)cc13 | = | 6.45
